Data provenance is patent US20210230266A1.

Property: MMP2 production, Experiment 2 (human atrial fibroblasts + TGFB1); scope: individual binders
experimental.system: T1, Human IL-11 (human, UniProt P20809 22-199); further: test concentration or dose not given here
T1 sequence: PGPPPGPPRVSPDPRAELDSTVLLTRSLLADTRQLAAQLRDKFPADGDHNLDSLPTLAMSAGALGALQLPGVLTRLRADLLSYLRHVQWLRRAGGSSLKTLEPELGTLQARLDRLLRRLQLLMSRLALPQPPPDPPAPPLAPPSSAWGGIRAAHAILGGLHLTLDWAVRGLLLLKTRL
test.description: cell-based or functional assay
readout.name: MMP2 production, Experiment 2 (human atrial fibroblasts + TGFB1) (ng/mL)

binder | unit.label | measured
YU112-C05 (antibody) EVQLVESGGGVVQPGRSLRLSCAASGFTFSSYAMHWVRQAPGKGLEWVAVISYDGSNKYYADSVKGRFTISRDNSKNTLYLQMNSLRAEDTAVYYCARIMGYDYGDYDVVDYWGQGTLVTVSSGSASAPKLEEGEFSEARVQSALTQPRSVSGSPGQSVTISCTGTISDVGGYNYVSWYQQHPGKAPKLMIYDVTKRPSGVPDRFSGSKSGNTASLTISGLQAEDEAGYYCSSYAGSYTWVFGGGTELTVL | ng/mL | 50.1
YU100-G08 (antibody, human IgG1, V domains shown, Light chain shuffled human antibody; Only the variable domains are tied to the clone) VH: QVQLVQSGGGVVQPGRSLRLSCAASGFTFSSYGMHWVRQAPGKGLEWVAVISYDGSNKYYADSVKGRFTISRDNSKNTLYLQMNSLRAEDTAVYYCAKIGATDPLDYWGQGTLVTVSS VL: QSALTQPRSVSGSPGQSVTLSCTGTSSDVGGYNYVSWYQHYPGKAPKLMIFDVNERSSGVPDRFSGSKSGNTASLTISGLQAEDEADYYCCSYAGRYTWMFGGGTKVTVLG | ng/mL | 38
YU100-G07 (antibody) QVQLVESGGGVVQPGRSLRLSCAASGFTFSSYGMHWVRQAPGKGLEWVAVISYDGSNKYYADSVKGRFTISRDNSKNTLYLQMNSLRAEDTAVYYCAKIGATDPLDYWGQGTLVTVSSGSASAPKLEEGEFSEARVQSALTQPASVSGSPGQSITISCTGTSSDVGAYDYVSWYQQHPGKAPKLMIYDVTNRPSGVSNRFSGSKSGNTASLTISGLQAEDEADYYCASYTRSSVWVFGGGTKLTVL | ng/mL | 49.7
